# Test system: UO-31
# assay_notes: NCI tumour cell line growth inhibition, 48 h
Calls of active or inactive are those of the source. Cut-off read from the data, not from the text of the source: active = GI50 up to about 1.1 µM and inactive = higher.
Reply using exactly one outcome from t (active), f (inactive)

Hey, what did the test say about CC(=O)OCC1OC(n2c(C)c(C(C)=O)c(-c3ccc(Cl)cc3)c(C#N)c2=S)C(OC(C)=O)C(OC(C)=O)C1OC(C)=O (stereo unspecified) ? f

Hey, what did the test say about CC(C)N/C(=N\C#N)NS(=O)(=O)c1cnccc1NC1CCCCCCC1 ? f

Hey, what did the test say about CC(C)=CCC[C@@H](C)C1=C(O)C(O)C(C)=C2N=C(c3ccccc3)C(=O)OC21 (stereo partly specified) ? f

Hey, what did the test say about COc1cc(OC)c2c(c1-c1ccc(C)cc1)CC(C)N(Cc1ccccc1)[C@H]2C (stereo partly specified) ? f

Hey, what did the test say about CC(Oc1ccc2c(=O)cc(-c3ccccc3)oc2c1)C(=O)O (stereo unspecified) ? f

Hey, what did the test say about COc1cc(N(CCC#N)CCC#N)ccc1C(/N=N/c1cccc(C)c1)=N\NC(=O)c1ccc(C)cc1 ? f

Hey, what did the test say about N#C/C(=C\c1cc2ccccc2c2ccccc12)c1ccccc1 ? f

Hey, what did the test say about O=C(O)c1cc(-c2ccc(-c3ccccc3)cc2)nc2cc3ccccc3cc12 ? f

Hey, what did the test say about CCOC(=O)N1CCN(c2c(N)nc(C)nc2O)CC1 ? f

Hey, what did the test say about COc1ccc([C@]23CCC4(OCC(C)(C)CO4)[C@H]4CON(O[C@H](O[C@@H]5CCCCC5C(C)(C)c5ccccc5)C2)[C@@H]43)cc1OC (stereo partly specified) ? f

Hey, what did the test say about CCOC(=O)c1c(N=P(c2ccccc2)(c2ccccc2)c2ccccc2)nnc(-c2ccccc2)c1-c1ccccc1 ? f

Hey, what did the test say about CC(C)=CCC[C@@H](C)c1c2ncc[nH]c-2c(C)c(=O)c1O ? f

Hey, what did the test say about Cc1cccc(Nc2cn(CCOc3ccccc3)c(=O)[nH]c2=O)c1 ? f

Hey, what did the test say about CC(C)(C)c1cc(C2=NNC(c3ccccc3)C2)cc(C(C)(C)C)c1O (stereo unspecified) ? f

Hey, what did the test say about CN(C)Cc1cc(/N=N/c2ccccc2Cl)ccc1O ? f

Hey, what did the test say about CC(NC(C#N)CC12CC3CC(CC(C3)C1)C2)c1ccccc1 (stereo unspecified) ? f

Hey, what did the test say about O=P1(c2ccccc2)C(c2ccccc2)=CC=C1c1ccccc1 ? f

Hey, what did the test say about O=C1C=CC(=C(c2ccccc2)c2ccc(O)cc2)C=C1 ? f

Hey, what did the test say about C=CCOc1ccc(C(=N/NC(=O)c2ccccc2)/N=N/c2ccccc2)cc1OC ? f

Hey, what did the test say about COC1=C(Br)[C@H](O)[C@@]2(C=C1Br)CC(C(=O)NCCCCCNC(=N)N)=NO2 ? f

Hey, what did the test say about NC(=S)NN=Cc1ccccc1OCc1cccc(COc2ccccc2C=NNC(N)=S)n1 ? f

Hey, what did the test say about COc1cccc2cc(C(=O)Nc3ccccc3)c(=N)oc12 ? f

Hey, what did the test say about COc1ccc(N(CN2C(=O)CCC2OC)C(C)=O)cc1 (stereo unspecified) ? f

Hey, what did the test say about Cc1sc2nc3n(c(=O)c2c1C)N=C(c1ccc(Cl)cc1)CS3 ? f

Hey, what did the test say about Nc1c(C(=O)c2ccc(Cl)cc2)[nH]c(NCc2ccccc2)c1C(=S)Nc1ccccc1 ? f

Hey, what did the test say about CNC(=S)OCCC(C)CCCC(C)C (stereo unspecified) ? f

Hey, what did the test say about O=c1[nH]nc(-c2ccccc2)c2[nH]c3c(c12)Cc1ccccc1-3 ? f

Hey, what did the test say about CCCSc1ccc2[nH]c(/N=C/c3ccco3)cc2c1 ? f

Hey, what did the test say about C=C(C(=O)OCC)C(=O)OCC ? f

Hey, what did the test say about O=C1CN2CCN(CC2)CC(=O)Nc2ccc(cc2)S(=O)(=O)c2ccc(cc2)NC(=O)CN2CCN(CC2)CC(=O)Nc2ccc(cc2)S(=O)(=O)c2ccc(cc2)N1 ? f

Hey, what did the test say about CCN1C(=S)n2cccc2C1CC(=O)c1ccc(Cl)cc1 (stereo unspecified) ? f

Hey, what did the test say about C=CCn1c(=O)c(C)cn(COCCO)c1=O ? f

Hey, what did the test say about O=C1/C(=C/c2ccc(O)cc2)CC/C1=C\c1ccc(O)cc1 ? f

Hey, what did the test say about CC(NC(=O)Cc1ccc(OP(=O)(OCc2ccc([N+](=O)[O-])o2)N(C)CCCCCl)cc1)c1ccc(OCC2CCCCC2)c(C(N)=O)c1 (stereo unspecified) ? f

Hey, what did the test say about COc1cc2c(oc(=O)c3c4occc4cc(OC)c23)c2cccc(OCc3ccccc3)c12 ? f

Hey, what did the test say about CCN(CCCN(CC)C(=O)Nc1c(C)cccc1C)C(=O)Nc1c(C)cccc1C ? f

Hey, what did the test say about OC(/C(=N/c1ccccc1)c1ccccc1)c1ccccc1 (stereo unspecified) ? f

Hey, what did the test say about C[N+](C)(C)CCOP(=O)(O)OP(=O)([O-])OCC1CCC(n2ccc(N)nc2=O)O1 (stereo unspecified) ? f

Hey, what did the test say about CCOC(=O)Oc1ccc(C(CNC(C)C)OC(=O)OCC)cc1OC(=O)OCC (stereo unspecified) ? f

Hey, what did the test say about O=C1C2=Nc3ccccc3C(O)(C(=O)O)N2c2ccccc21 (stereo unspecified) ? f

Hey, what did the test say about COc1cc2c(/C=C3/C(=O)Nc4ccccc43)c(Cl)[nH]c2cc1C ? t
